Kindly supply the reported inhibition values for the records listed here.
study-system: Serine/threonine-protein kinase SIK1 (Homo sapiens) (UniProt P57059);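 further: mean inhibition value from the GSK PKIS profiling set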
Sequence (P57059 whole entry): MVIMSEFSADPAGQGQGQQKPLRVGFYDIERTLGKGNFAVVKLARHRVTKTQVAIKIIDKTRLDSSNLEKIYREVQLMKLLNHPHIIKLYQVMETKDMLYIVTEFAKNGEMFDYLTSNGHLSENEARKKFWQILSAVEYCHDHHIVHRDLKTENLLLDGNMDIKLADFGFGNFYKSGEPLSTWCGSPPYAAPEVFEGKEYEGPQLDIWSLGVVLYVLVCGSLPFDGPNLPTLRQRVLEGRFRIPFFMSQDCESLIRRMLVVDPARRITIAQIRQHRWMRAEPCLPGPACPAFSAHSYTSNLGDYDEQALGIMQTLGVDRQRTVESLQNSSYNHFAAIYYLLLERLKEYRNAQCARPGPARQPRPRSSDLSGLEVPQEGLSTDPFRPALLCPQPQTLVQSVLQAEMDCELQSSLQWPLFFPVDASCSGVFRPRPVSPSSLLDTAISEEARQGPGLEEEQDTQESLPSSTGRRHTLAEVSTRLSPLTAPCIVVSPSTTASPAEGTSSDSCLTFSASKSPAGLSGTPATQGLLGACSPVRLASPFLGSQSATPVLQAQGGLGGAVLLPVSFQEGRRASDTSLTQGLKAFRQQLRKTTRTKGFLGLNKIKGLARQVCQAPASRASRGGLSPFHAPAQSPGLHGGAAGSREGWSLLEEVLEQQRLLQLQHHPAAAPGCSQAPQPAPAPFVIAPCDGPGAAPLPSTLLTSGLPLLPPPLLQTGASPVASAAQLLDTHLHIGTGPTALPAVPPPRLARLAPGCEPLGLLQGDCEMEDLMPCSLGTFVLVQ
test-parameters: at 1 µM
Write the number in % without appending the unit.

Asked: What inhibition value was documented for this compound, COc1ccccc1-c1cc(/C=C2\C(=O)Nc3ncc(Br)cc32)cc(Br)c1O ?
Given back: 9.01

Asked: What inhibition value was documented for this compound, CS(=O)(=O)Nc1ccc(-c2cc(-c3ccccc3)cc(C(N)=O)c2N)cc1 ?
Given back: 7.99

Asked: What inhibition value was documented for this compound, CS(=O)(=O)CCNCc1ccc(-c2ccc3ncnc(Nc4ccc(OCc5ccccc5)cc4)c3c2)o1 ?
Given back: 9.04

Asked: What inhibition value was documented for this compound, COC(=O)Nc1nc2cc(Oc3ccc(NC(=O)Nc4ccccc4)cc3)ccc2[nH]1 ?
Given back: 7.79
